tested-on: bile salt export pump (BSEP) (Homo sapiens, UniProt O95342)
Sequence (O95342 whole entry): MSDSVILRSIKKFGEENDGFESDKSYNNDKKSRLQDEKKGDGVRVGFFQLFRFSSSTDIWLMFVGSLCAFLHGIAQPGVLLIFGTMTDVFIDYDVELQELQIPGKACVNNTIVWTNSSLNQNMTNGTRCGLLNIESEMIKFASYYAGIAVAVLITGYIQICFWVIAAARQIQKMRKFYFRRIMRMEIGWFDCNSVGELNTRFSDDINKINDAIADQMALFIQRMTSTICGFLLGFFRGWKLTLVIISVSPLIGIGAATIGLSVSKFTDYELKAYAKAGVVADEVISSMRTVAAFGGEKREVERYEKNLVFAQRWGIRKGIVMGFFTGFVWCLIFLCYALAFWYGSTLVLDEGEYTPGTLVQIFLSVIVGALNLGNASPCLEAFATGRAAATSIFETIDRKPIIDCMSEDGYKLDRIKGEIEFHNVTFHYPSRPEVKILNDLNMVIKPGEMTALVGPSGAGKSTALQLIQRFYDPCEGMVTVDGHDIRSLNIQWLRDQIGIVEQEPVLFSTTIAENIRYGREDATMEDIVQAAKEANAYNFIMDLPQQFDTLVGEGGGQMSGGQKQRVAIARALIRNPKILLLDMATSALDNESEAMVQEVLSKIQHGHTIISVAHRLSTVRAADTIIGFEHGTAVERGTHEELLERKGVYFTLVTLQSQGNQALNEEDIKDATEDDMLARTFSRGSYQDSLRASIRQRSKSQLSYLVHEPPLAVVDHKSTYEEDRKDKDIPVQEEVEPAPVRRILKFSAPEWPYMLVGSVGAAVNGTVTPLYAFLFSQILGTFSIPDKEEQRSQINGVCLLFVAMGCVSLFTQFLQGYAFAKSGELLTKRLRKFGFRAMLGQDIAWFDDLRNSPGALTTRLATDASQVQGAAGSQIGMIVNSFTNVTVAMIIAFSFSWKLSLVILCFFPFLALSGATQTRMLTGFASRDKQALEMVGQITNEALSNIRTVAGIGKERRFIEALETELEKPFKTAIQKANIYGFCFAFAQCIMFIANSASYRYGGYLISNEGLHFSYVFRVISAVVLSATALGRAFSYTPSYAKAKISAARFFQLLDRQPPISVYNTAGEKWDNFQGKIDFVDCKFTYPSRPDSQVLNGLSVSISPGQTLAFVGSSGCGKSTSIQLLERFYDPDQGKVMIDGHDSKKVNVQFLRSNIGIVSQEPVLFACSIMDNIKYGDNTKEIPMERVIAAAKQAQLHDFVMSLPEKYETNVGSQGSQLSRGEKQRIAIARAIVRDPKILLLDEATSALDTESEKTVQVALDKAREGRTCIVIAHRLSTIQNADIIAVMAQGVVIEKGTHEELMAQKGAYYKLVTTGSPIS
reported-conditions: IC50 ratio compared to Debio 025
Square brackets hold non-standard residues; d marks the D form. Peptide text beside a SMILES is read from it. MeBmt = C/C=C/C[C@@H](C)[C@@H](O)[C@H](NC)C(=O)O; NMeL = CN[C@@H](CC(C)C)C(=O)O; NMeV = CN[C@H](C(=O)O)C(C)C; dHiv = CC(C)[C@@H](O)C(=O)O; NMeA = CN[C@@H](C)C(=O)O; dNMeA = CN[C@H](C)C(=O)O; Abu = CC[C@H](N)C(=O)O

[
  {
    "molecule": "C/C=C/C[C@@H](C)[C@@H](O)[C@H]1C(=O)N[C@@H](CC)C(=O)N(C)[C@H](C)C(=O)N(C)[C@@H](C(C)C)C(=O)N[C@@H](C(C)C)C(=O)N(C)[C@@H](C)C(=O)N[C@@H](C)C(=O)O[C@H](C(C)C)C(=O)N(C)[C@@H](CC(C)C)C(=O)N[C@@H](CC(C)C)C(=O)N(C)[C@@H](C(C)C)C(=O)N1C [(Ie)] (cyclo(A[dHiv][NMeL]L[NMeV][MeBmt][Abu][dNMeA][NMeV]V[NMeA]))",
    "BSEP fold Debio 025": 0.40
  },
  {
    "molecule": "C/C=C/C[C@@H](C)[C@@H](O)[C@H]1C(=O)N[C@@H](CC)C(=O)N(C)[C@H](C)C(=O)N(C)[C@@H](C(C)C)C(=O)N[C@@H](CC(C)C)C(=O)N(C)[C@@H](CC(C)C)C(=O)N[C@@H](C)C(=O)O[C@H](C(C)C)C(=O)N(C)[C@@H](CC(C)C)C(=O)N[C@@H](CC(C)C)C(=O)N(C)[C@@H](C(C)C)C(=O)N1C [(Id)] (cyclo(A[dHiv][NMeL]L[NMeV][MeBmt][Abu][dNMeA][NMeV]L[NMeL]))",
    "BSEP fold Debio 025": 0.42
  }
]

====

tested-on: bile salt export pump (BSEP) (Homo sapiens)
Square brackets hold non-standard residues; d marks the D form. Peptide text beside a SMILES is read from it. MeBmt = C/C=C/C[C@@H](C)[C@@H](O)[C@H](NC)C(=O)O; NMeL = CN[C@@H](CC(C)C)C(=O)O; NMeV = CN[C@H](C(=O)O)C(C)C; dHiv = CC(C)[C@@H](O)C(=O)O; dNMeA = CN[C@H](C)C(=O)O; Abu = CC[C@H](N)C(=O)O
attribute-measured: IC50

[
  {
    "compound": "C/C=C/C[C@@H](C)[C@@H](O)[C@H]1C(=O)N[C@@H](CC)C(=O)N(C)[C@H](C)C(=O)N(C)[C@@H](C(C)C)C(=O)N[C@@H](CC(C)C)C(=O)N(C)[C@@H](CC(C)C)C(=O)NCC(=O)O[C@H](C(C)C)C(=O)N(C)[C@@H](CC(C)C)C(=O)N[C@@H](CC(C)C)C(=O)N(C)[C@@H](C(C)C)C(=O)N1C [(Ia)] (cyclo([Abu][dNMeA][NMeV]L[NMeL]G[dHiv][NMeL]L[NMeV][MeBmt]))",
    "reported-measurement": "0.4 µM"
  }
]
